Target: Fyn (UniProt P06241)
Sequence (P06241 whole entry, looked up): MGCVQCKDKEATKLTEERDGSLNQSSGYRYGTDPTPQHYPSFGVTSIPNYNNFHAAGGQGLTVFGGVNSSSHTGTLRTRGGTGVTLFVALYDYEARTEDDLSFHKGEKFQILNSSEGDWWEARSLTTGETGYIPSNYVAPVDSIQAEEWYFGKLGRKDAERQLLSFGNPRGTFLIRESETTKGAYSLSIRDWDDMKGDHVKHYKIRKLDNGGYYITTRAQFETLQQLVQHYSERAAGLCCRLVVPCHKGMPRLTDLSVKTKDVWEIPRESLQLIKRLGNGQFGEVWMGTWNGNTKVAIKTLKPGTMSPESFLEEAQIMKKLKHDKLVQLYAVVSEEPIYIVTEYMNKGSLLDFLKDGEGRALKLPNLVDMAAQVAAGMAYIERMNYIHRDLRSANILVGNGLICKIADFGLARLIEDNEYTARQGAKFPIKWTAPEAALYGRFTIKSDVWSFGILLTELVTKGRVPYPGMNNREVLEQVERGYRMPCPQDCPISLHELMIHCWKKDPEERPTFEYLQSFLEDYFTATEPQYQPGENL
Test: phosphorylation enrichment, bacterial display (enrichment ratio); higher = better substrate or ligand; peptides without Tyr show the background;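 further: 11-residue human phosphosite peptides and single-mutation variants displayed on the E. coli surface, counted by deep sequencing, each peptide's frequency after selection divided by its frequency in the unselected input library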;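 further: frequency after pTyr selection over input frequency; kinase dosed for 20-30% of maximal phosphorylation in three min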

{"input_sequence": "LQTFRYHGLSM [PDHA1_Y289_H292L_YF]", "assay_system": "Fyn (UniProt P06241)", "phosphorylation enrichment": 1.07}
{"input_sequence": "AEVDTYCRHNY [HLA-DRB1_Y107_A103E]", "assay_system": "Fyn (UniProt P06241)", "phosphorylation enrichment": 0.394}
{"input_sequence": "WASSSYRETPS [SORBS1_Y79_R74W]", "assay_system": "Fyn (UniProt P06241)", "phosphorylation enrichment": 0.402}
{"input_sequence": "NARGLYYKLHN [GATA2_Y376_C373R]", "assay_system": "Fyn (UniProt P06241)", "phosphorylation enrichment": 0.572}
{"input_sequence": "SSRKEYFIGGG [GYPC_Y126]", "assay_system": "Fyn (UniProt P06241)", "phosphorylation enrichment": 0.603}
{"input_sequence": "QRDSSYFWEIE [RAF1_Y340_YF]", "assay_system": "Fyn (UniProt P06241)", "phosphorylation enrichment": 0.966}
{"input_sequence": "TGYRPYVCPFD [YY1_Y383_D380Y]", "assay_system": "Fyn (UniProt P06241)", "phosphorylation enrichment": 0.583}

====

Molecular target: EPHB2 (UniProt P29323)
Sequence (P29323 whole entry, looked up): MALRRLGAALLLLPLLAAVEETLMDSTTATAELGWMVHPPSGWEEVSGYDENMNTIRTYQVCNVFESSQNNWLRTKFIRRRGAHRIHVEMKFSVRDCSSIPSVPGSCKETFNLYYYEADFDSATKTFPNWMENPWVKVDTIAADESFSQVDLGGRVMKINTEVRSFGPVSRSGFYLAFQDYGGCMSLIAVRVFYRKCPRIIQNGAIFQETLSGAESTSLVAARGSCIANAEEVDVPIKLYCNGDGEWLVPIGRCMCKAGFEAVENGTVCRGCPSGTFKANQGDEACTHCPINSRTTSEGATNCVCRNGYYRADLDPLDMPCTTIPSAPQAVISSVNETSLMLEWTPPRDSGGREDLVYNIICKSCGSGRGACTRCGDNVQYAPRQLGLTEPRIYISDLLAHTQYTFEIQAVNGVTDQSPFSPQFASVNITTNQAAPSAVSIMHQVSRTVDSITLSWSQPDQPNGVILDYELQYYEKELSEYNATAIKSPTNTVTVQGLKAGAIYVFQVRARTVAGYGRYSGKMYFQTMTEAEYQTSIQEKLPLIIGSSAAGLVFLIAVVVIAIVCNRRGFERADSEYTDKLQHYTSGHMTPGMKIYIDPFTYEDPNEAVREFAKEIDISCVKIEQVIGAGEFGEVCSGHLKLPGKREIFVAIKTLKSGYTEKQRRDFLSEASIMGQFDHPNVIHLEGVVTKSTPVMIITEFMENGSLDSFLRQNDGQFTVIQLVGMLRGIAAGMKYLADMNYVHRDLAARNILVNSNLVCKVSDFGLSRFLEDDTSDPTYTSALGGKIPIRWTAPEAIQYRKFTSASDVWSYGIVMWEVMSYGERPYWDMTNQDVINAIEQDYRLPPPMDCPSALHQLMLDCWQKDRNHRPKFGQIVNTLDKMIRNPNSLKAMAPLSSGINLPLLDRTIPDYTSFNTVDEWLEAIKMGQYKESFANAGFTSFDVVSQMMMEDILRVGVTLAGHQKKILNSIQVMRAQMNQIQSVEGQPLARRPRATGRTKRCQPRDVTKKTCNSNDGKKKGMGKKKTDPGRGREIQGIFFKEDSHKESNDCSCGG
Test: phosphorylation enrichment, bacterial display (enrichment ratio); higher = better substrate or ligand; peptides without Tyr show the background
Classes are defined on phosphorylation enrichment with ranges group A = under 0.5, group B = from 0.5 up to 0.6, group C = 0.6 and over

{"input_sequence": "AKKMKYFEGVS [PRKDC_Y682_I680M]", "qualitative_label": "group A"}
{"input_sequence": "IPPRRYFCSGV [STAMBP_Y36_R38C]", "qualitative_label": "group A"}
{"input_sequence": "TRSFKCLLLSM [NF1_Y491_Y491C_YF]", "qualitative_label": "group B"}
{"input_sequence": "QMRLKYSQSDL [SMC1A_Y714]", "qualitative_label": "group A"}
{"input_sequence": "ISTAGYSFPEL [EDAR_Y406_I408F]", "qualitative_label": "group B"}
{"input_sequence": "TNDRLYLRSLE [MTM1_Y71_Y68D]", "qualitative_label": "group A"}
{"input_sequence": "NDHHFYLEGTL [ALDOB_Y223_V222F]", "qualitative_label": "group B"}
{"input_sequence": "MALDIYRASYY [ALK_Y1278_R1275L]", "qualitative_label": "group B"}
{"input_sequence": "RNGDRYFKEIV [DCX_Y64_G67E]", "qualitative_label": "group C"}
{"input_sequence": "LLVVLYKYRCF [PSEN1_Y154_Y159F]", "qualitative_label": "group C"}
{"input_sequence": "NDEDIYKGLPD [VAV3_Y141]", "qualitative_label": "group C"}
{"input_sequence": "CNSFRYGGGGG [NPPA_Y151]", "qualitative_label": "group B"}
{"input_sequence": "IVAREYFSEAD [CAMK2A_Y106_YF]", "qualitative_label": "group C"}
{"input_sequence": "EMFNPYFGLFE [NEDD4L_Y679_YF]", "qualitative_label": "group C"}
{"input_sequence": "ILTYKYLQIPM [KIT_Y547_K550I]", "qualitative_label": "group C"}
{"input_sequence": "RMSSSYPTGLA [ADM_Y52]", "qualitative_label": "group A"}
{"input_sequence": "GNLLIYTEFGK [HGD_Y166]", "qualitative_label": "group C"}
{"input_sequence": "GRLPEYNTPIA [CCDC151_Y542_R545P]", "qualitative_label": "group A"}
{"input_sequence": "LGSWTYTKTVS [ROS1_Y144]", "qualitative_label": "group C"}
{"input_sequence": "PLGPLYASSNP [INSR_Y992]", "qualitative_label": "group C"}
{"input_sequence": "PYAEPYADYGG [APBA1_Y187_S184A]", "qualitative_label": "group C"}
{"input_sequence": "FKGIVYSVSSD [DCX_Y70_A71S]", "qualitative_label": "group C"}
{"input_sequence": "TTKGAYSLSIR [YES1_Y194]", "qualitative_label": "group A"}
